Listed here: items and their measured activity, negative = inhibition.
Experiment: Stat Signaling Pathway (AID 446);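 also: ME-180 cervical cancer cells given 40 pM IL-6 alongside compound; SIE-controlled beta-lactamase reporter measured as 460/530 nm FRET emission ratio; % is scaled to controls: 0 for no effect and ±100 for the full control effect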
Settings: ME-180 (cervical carcinoma) SIE beta-lactamase reporter, IL-6 stimulated, 5 h; at 17.2 µM (top of the series) unless noted
Protocol: NCGC Assay Overview: The IL-6/STAT signaling pathway was assayed in ME-180 cervical carcinoma cells by a beta-lactamase reporter gene controlled by a STAT Inducible Element (SIE). This reporter is induced by IL-6 at 40 pM AC50 and inhibited by the pan JAK inhibitor, 2-(1,1-Dimethylethyl)-9-fluoro-3,6-dihydro-7H-benz[h]-imidaz[4,5-f]isoquinolin-7-one, at approximately 10 nM AC50. Plated cells were incubated overnight and on the following day, stimulated with 40 pM IL-6 for 5 hrs. […]
Records with an inconclusive call do not appear.

>  <COMPOUND>
CCCCNc1nc2c(c(=O)n(C)c(=O)n2C)n1Cc1cccc(OC)c1

>  <UNITS LABEL>
%

>  <activity, negative = inhibition>
-17

$$$$
>  <COMPOUND>
COC(=O)c1ccccc1NC(=O)CSc1nnc(-c2ccncc2)o1

>  <UNITS LABEL>
%

>  <activity, negative = inhibition>
0.0286

$$$$
>  <COMPOUND>
COc1cccc(C2/C(=C(\O)c3ccc4c(c3)OCCO4)C(=O)C(=O)N2CCCN(C)C)c1OC (centres undefined)

>  <UNITS LABEL>
%

>  <activity, negative = inhibition>
4.4

$$$$
>  <COMPOUND>
COC(=O)NC(Nc1sc2c(c1C(N)=O)CCCC2)(C(=O)OC)C(F)(F)F (centres undefined)

>  <UNITS LABEL>
%

>  <activity, negative = inhibition>
5.04

$$$$
>  <COMPOUND>
Cc1cc(=O)oc(C)c1C(=O)NCCc1ccccc1

>  <UNITS LABEL>
%

>  <activity, negative = inhibition>
14.6

$$$$
>  <COMPOUND>
FC(F)(F)c1cccc(N2CCc3cn[nH]c32)c1

>  <UNITS LABEL>
%

>  <activity, negative = inhibition>
-1.19

$$$$
>  <COMPOUND>
COc1cccc(N2CCN(c3ncnc4c3[nH]c3ccc(F)cc34)CC2C)c1 (centres undefined)

>  <UNITS LABEL>
%

>  <activity, negative = inhibition>
-104

$$$$
>  <COMPOUND>
CCCSc1nc(C)c(CC(=O)O)c(=O)[nH]1

>  <UNITS LABEL>
%

>  <activity, negative = inhibition>
-1.03

$$$$
>  <COMPOUND>
CC(NC(=O)Nc1cccnc1)(C(F)(F)F)C(F)(F)F

>  <UNITS LABEL>
%

>  <activity, negative = inhibition>
-3.14

$$$$

* * *

Molecular target: Cytochrome P450 2C9 (Homo sapiens)
Experiment: qHTS Assay for Inhibitors and Substrates of Cytochrome P450 2C9 (AID 883); also: nearly all actives have a fitted effect of over 60% in size
Conditions: recombinant CYP2C9, luciferin-H luminescence, 60 min; series mostly up to 57.1 µM
Results filed as inconclusive are left out. Active and inactive are the calls of the source. Calls follow the shape of the dose curve; as a rule, active = well fitted inhibition curve with a large enough effect; inconclusive = small, poorly fitted or top-dose-only effect; inactive = no such curve, though single readings can be large or run the other way.
Outcomes: label 1 = active, label 0 = inactive

>  <STRUCTURE SMILES STRING>
CC(C)C1=CC2=CC[C@H]3[C@@](C)(CCC[C@]3(C)C(=O)O)[C@@H]2CC1

>  <CLASS LABEL>
label 1

$$$$
>  <STRUCTURE SMILES STRING>
CC(C)C[C@@H](CC(=O)N[C@@H](CCC(=O)O)CC(=O)O)NC(=O)[C@@H]1CNCC[C@H]1NC(=O)C[C@@H](NC(=O)C[C@H](Cc1ccccc1)NC(=O)[C@@H]1CCCC[C@H]1N)C(C)C

>  <CLASS LABEL>
label 0

$$$$
>  <STRUCTURE SMILES STRING>
CC(C)C[C@@H](CC(=O)N[C@@H](CCC(=O)O)CC(=O)O)NC(=O)[C@@H]1CNCC[C@H]1NC(=O)C[C@H](CCCN)NC(=O)C[C@H](Cc1c[nH]c2ccccc12)NC(=O)[C@@H]1CNCC[C@H]1N

>  <CLASS LABEL>
label 0

$$$$
>  <STRUCTURE SMILES STRING>
Cc1c(-c2ccccc2)oc2cc(O)ccc2c1=O

>  <CLASS LABEL>
label 1

$$$$
>  <STRUCTURE SMILES STRING>
NCCC[C@@H](CC(=O)N[C@@H]1CCNC[C@H]1C(=O)N[C@H](CC(=O)N[C@@H](CCC(=O)O)CC(=O)O)Cc1ccccc1)NC(=O)C[C@H](Cc1c[nH]c2ccccc12)NC(=O)[C@@H]1CCCC[C@H]1N

>  <CLASS LABEL>
label 0

$$$$
>  <STRUCTURE SMILES STRING>
CCCCC#Cc1ccccc1CC(=O)Nc1ccccc1

>  <CLASS LABEL>
label 1

$$$$

* * *

Test system: P93_24
Assay: qHTS profiling for inhibitors of Plasmodium falciparum proliferation (AID 504749); also: nearly all actives have a fitted effect of over 60% in size
Conditions: P. falciparum in erythrocytes, SYBR Green DNA, 72 h; series mostly up to 28.7 µM
Records with an inconclusive call do not appear. The source made the active and inactive calls. Calls follow the shape of the dose curve; as a rule, active = well fitted inhibition curve with a large enough effect; inconclusive = small, poorly fitted or top-dose-only effect; inactive = flat fitted curve, though single readings scatter.
Outcomes: Yes for active, No for inactive

>  <COMPOUND>
CCN(CC)CC(=O)Nc1c(C)cc(C)cc1C

>  <CLASS LABEL>
No

$$$$
>  <COMPOUND>
C[C@@H](O)[C@@H]1C(=O)N2C(C(=O)O)=C([C@H]3CCCO3)S[C@H]12

>  <CLASS LABEL>
No

$$$$
>  <COMPOUND>
O=[N+]([O-])O[C@H]1CO[C@H]2[C@@H]1OC[C@H]2O

>  <CLASS LABEL>
No

$$$$
>  <COMPOUND>
O=C1CC[C@H](C(=O)N[C@@H]2C[C@H]2c2ccccc2)N1

>  <CLASS LABEL>
No

$$$$
>  <COMPOUND>
CC(=O)O[C@]1(C(C)=O)CCC2C3CCC4=CC(=O)CCC4(C)C3(F)C(O)CC21C (some centres undefined)

>  <CLASS LABEL>
No

$$$$
>  <COMPOUND>
COC(c1ccccc1)(c1ccccc1)C(Oc1nc(C)cc(C)n1)C(=O)O (centres undefined)

>  <CLASS LABEL>
No

$$$$
>  <COMPOUND>
CCCCC(=O)O[C@]1(C(=O)CO)CCC2C3CCC4=CC(=O)CCC4(C)C3C(O)CC21C (some centres undefined)

>  <CLASS LABEL>
No

$$$$
>  <COMPOUND>
C[S+](C)CC[C@H](N)C(=O)O

>  <CLASS LABEL>
No

$$$$
>  <COMPOUND>
CCC(C(=O)O)C1OC(C(C)C(O)C(C)C(=O)C(CC)C2OC3(C=CC(O)C4(CCC(C)(C5CCC(O)(CC)C(C)O5)O4)O3)C(C)CC2C)C(C)CC1C (centres undefined)

>  <CLASS LABEL>
Yes

$$$$
>  <COMPOUND>
Cc1cnc(C(=O)O)cn1

>  <CLASS LABEL>
No

$$$$
>  <COMPOUND>
CCCCCCCCCCCC(=O)OCC(O)C1OCC(O)C1O (centres undefined)

>  <CLASS LABEL>
No

$$$$
>  <COMPOUND>
OC[C@@H]1O[C@](CO)(O[C@H]2O[C@H](CO)[C@@H](O)[C@H](O)[C@H]2O)[C@H](O)[C@H]1O

>  <CLASS LABEL>
No

$$$$
>  <COMPOUND>
CC(=O)OCC(=O)[C@@]1(O)CCC2C3CCC4=CC(=O)C=CC4(C)C3C(O)C[C@]21C (some centres undefined)

>  <CLASS LABEL>
No

$$$$
>  <COMPOUND>
Cc1onc(-c2c(F)cccc2Cl)c1C(=O)NC1C(=O)N2C1SC(C)(C)C2C(=O)O (centres undefined)

>  <CLASS LABEL>
No

$$$$
>  <COMPOUND>
CO[C@H]1C[C@@H]2CC[C@@H](C)[C@@](O)(O2)C(=O)C(=O)N2CCCC[C@H]2C(=O)O[C@H]([C@H](C)C[C@@H]2CC[C@@H](O)[C@H](OC)C2)CC(=O)[C@H](C)/C=C(\C)[C@@H](O)[C@@H](OC)C(=O)[C@H](C)C[C@H](C)/C=C/C=C/C=C/1C

>  <CLASS LABEL>
Yes

$$$$
>  <COMPOUND>
Nc1nc(/C(=C/CC(=O)O)C(=O)NC2C(=O)N3C(C(=O)O)=CCSC23)cs1 (centres undefined)

>  <CLASS LABEL>
No

$$$$
>  <COMPOUND>
CN(C)CC[C@@](O)(c1ccccc1)c1ccccc1Cl

>  <CLASS LABEL>
Yes

$$$$
>  <COMPOUND>
C[C@]12C=CC(=O)N[C@@H]1CC[C@@H]1C2CC[C@]2(C)C(C(=O)Nc3cc(C(F)(F)F)ccc3C(F)(F)F)CC[C@@H]12 (some centres undefined)

>  <CLASS LABEL>
No

$$$$
>  <COMPOUND>
CCOc1ccccc1O[C@@H](c1ccccc1)[C@@H]1CNCCO1

>  <CLASS LABEL>
Yes

$$$$
>  <COMPOUND>
OCC1O[C@H](O[C@H]2C(O)C(O)C(O)O[C@@H]2CO)C(O)C(O)C1O (some centres undefined)

>  <CLASS LABEL>
No

$$$$
>  <COMPOUND>
CC(=O)NC1[C@H](O)C[C@@](O)(C(=O)O)O[C@H]1[C@H](O)[C@H](O)CO (some centres undefined)

>  <CLASS LABEL>
No

$$$$
>  <COMPOUND>
C[C@@H]1C(SC2Cn3cnc[n+]3C2)=C(C(=O)[O-])N2C(=O)[C@H]([C@@H](C)O)[C@@H]12 (some centres undefined)

>  <CLASS LABEL>
No

$$$$
>  <COMPOUND>
C/C(=C(/CCOC(=O)C(C)C)SS/C(CCOC(=O)C(C)C)=C(\C)N(C=O)Cc1cnc(C)nc1N)N(C=O)Cc1cnc(C)nc1N

>  <CLASS LABEL>
No

$$$$
>  <COMPOUND>
C#C[C@@]1(O)CC[C@@H]2[C@H]3CCC4=C/C(=N\O)CC[C@H]4[C@@H]3CC[C@]21CC

>  <CLASS LABEL>
No

$$$$

FYI, the data here is from PubChem BioAssay (NCATS).
